Values compiled from PubChem BioAssay AID2060614.

Tested on: 598228-144-R-J1-PDC complex spheroids, viability
Assay: Anticancer human tumor 598228-144-R-J1-PDC patient-derived serous endometrial adenocarcinoma cell line growth inhibition [CLK]
Settings: curve of first compound; second compound 10 µM
observation.type: IC50

Below, each entry is followed by its recorded IC50 result.
molecule="Nc1ccn(C2OC(CO)C(O)C2(F)F)c(=O)n1 (stereo not drawn) + CNC(=O)c1ccc(Nc2nc(OC3CCCC3)c3c(-c4ccc5nc(C)oc5c4)c[nH]c3n2)c(OC)c1" result="44.9 nM"
molecule="CC(CO)NC(=O)c1cc(-c2ccc(Cl)cc2)nn(-c2cnn(C)c2)c1=O (stereo not drawn) + CNC(=O)c1ccc(Nc2nc(OC3CCCC3)c3c(-c4ccc5nc(C)oc5c4)c[nH]c3n2)c(OC)c1" result="> 10000 nM"

Look up IC50 for this molecule: O=C(c1cc(Cc2n[nH]c(=O)c3ccccc23)ccc1F)N1CCN(C(=O)C2CC2)CC1 + CN1CCN(c2cc(C(=O)Nc3cc4cc(-c5cnn(C)c5)ccc4cn3)ccn2)CC1
< 31.6 nM

* * *

Tested on: 598228-144-R-J1-PDC complex spheroids, viability
Experiment: Anticancer human tumor 598228-144-R-J1-PDC cell line growth inhibition [CLK];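 further: spheroids exposed to compounds for seven days before readout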;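 on viability, T/C: 100% = DMSO vehicle control wells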
Settings: second compound 3.16 µM; first compound 3.16 µM; stronger effect = lower value
Measured viability, T/C of individual entries
Only the number, expressed in %, is required.

molecule="Nc1ccccc1NC(=O)c1ccc(CNC(=O)OCc2cccnc2)cc1 + CN1CCN(c2cc(C(=O)Nc3cc4cc(-c5cnn(C)c5)ccc4cn3)ccn2)CC1" tgt="598228-144-R-J1-PDC complex spheroids, viability" quantity_unit=% numeric_readout=1.66

From here, focus on the item given below.
Look up viability, T/C for this molecule: CC(=O)O[C@H]1C(=O)[C@@]2(C)[C@H]([C@H](OC(=O)c3ccccc3)[C@]3(O)C[C@H](OC(=O)[C@H](O)[C@@H](NC(=O)c4ccccc4)c4ccccc4)C(C)=C1C3(C)C)[C@]1(OC(C)=O)CO[C@@H]1C[C@@H]2O + CN1CCN(c2cc(C(=O)Nc3cc4cc(-c5cnn(C)c5)ccc4cn3)ccn2)CC1
1.95

* * *

Test system: 598228-144-R-J1-PDC complex spheroids, viability
Experiment: Anticancer human tumor 598228-144-R-J1-PDC cell line growth inhibition [CLK];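 further: spheroids exposed to compounds for seven days before readout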;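 on viability, T/C: 100% = DMSO vehicle control wells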
Conditions: second compound 0.1 µM; first compound 0.0316 µM; stronger effect = lower value
observation.type: viability, T/C (%)
Only the number, expressed in %, is required.

compound="Cn1ncnc1[C@H]1c2n[nH]c(=O)c3cc(F)cc(c23)N[C@@H]1c1ccc(F)cc1 + CNC(=O)c1ccc(Nc2nc(OC3CCCC3)c3c(-c4ccc5nc(C)oc5c4)c[nH]c3n2)c(OC)c1" observation_type="viability, T/C" quantity_unit=% numeric_readout=112
compound="Nc1ccccc1NC(=O)c1ccc(CNC(=O)OCc2cccnc2)cc1 + CNC(=O)c1ccc(Nc2nc(OC3CCCC3)c3c(-c4ccc5nc(C)oc5c4)c[nH]c3n2)c(OC)c1" observation_type="viability, T/C" quantity_unit=% numeric_readout=111
compound="CC1COCCN1c1cc(C2(S(C)(=N)=O)CC2)nc(-c2ccnc3[nH]ccc23)n1 (stereo not given) + CNC(=O)c1ccc(Nc2nc(OC3CCCC3)c3c(-c4ccc5nc(C)oc5c4)c[nH]c3n2)c(OC)c1" observation_type="viability, T/C" quantity_unit=% numeric_readout=105
compound="O=C(c1cc(Cc2n[nH]c(=O)c3ccccc23)ccc1F)N1CCN(C(=O)C2CC2)CC1 + CN1CCN(c2cc(C(=O)Nc3cc4cc(-c5cnn(C)c5)ccc4cn3)ccn2)CC1" observation_type="viability, T/C" quantity_unit=% numeric_readout=130

From here, focus on the item given below.
Look up viability, T/C for this compound: C#Cc1c(F)ccc2cc(O)cc(-c3ncc4c(N5CC6CCC(C5)N6)nc(OCC56CCCN5CC(F)C6)nc4c3F)c12 (stereo not given) + CNC(=O)c1ccc(Nc2nc(OC3CCCC3)c3c(-c4ccc5nc(C)oc5c4)c[nH]c3n2)c(OC)c1
99.7
